- System: RPMI-8226 leukemia
- experimental.details: NCI-60 one-dose screen, 48 h
- conditions: 10 µM unless noted
This is part of a sample that, as a whole, favours compounds with a hit. Of some 83,000 tested, about 20% had one in any assay. Calls of active or inactive are those of the source. The calls were made as follows: active = growth percent below 10; inactive = the rest.
Returns: one label drawn from true (1) (active), false (0) (inactive)

q: Which result was noted for this compound in the test: CC1[C@H](C)OC(=O)CC(O)CC(O)CC(O)CCC(O)C(O)C[C@]2(O)CC(O)C(C(=O)O)C(CC(OC3O[C@H](C)[C@@H](O)[C@H](N)[C@@H]3O)/C=C/C=C/C=C/C=C/CC/C=C/C=C/[C@H](C)[C@H]1O)O2 (stereo not given in full)
a: false (0)

q: For Cc1ccc(S(=O)(=O)F)cc1C(=O)O , which call appears in the assay record?
a: false (0)

q: Write down the call the test reported for this compound. Item: CN[C@@]1(c2ccccc2Cl)CCCC[C@@H]1NCC1CCCO1 (stereo not given in full)
a: false (0)

q: Answer briefly: the call reported for CC(=O)O[C@H](C[C@H](C(C)C)N(C)C(=O)[C@@H](NC(=O)[C@H]1CCCCN1C)C(C)C)c1nc(C(=O)N[C@@H](Cc2ccccc2)C[C@H](C)C(=O)O)c(C(C)C)s1 in this assay.
a: false (0)

q: Hello, I am checking results. What call was entered for CC(=O)[C@H]1CC[C@H]2[C@@H]3CC[C@H]4C[C@H](N)CC[C@]4(C)[C@H]3CC[C@]12C ?
a: false (0)

q: # lookup: test call for COc1cc([N+](=O)[O-])c2nc(C)ccc2c1[N+](=O)[O-]
a: false (0)

q: Short answer needed: outcome of this test for CC(=O)O[C@H]1C(=O)[C@@]2(C)[C@H]([C@H](OC(=O)c3ccccc3)[C@]3(O)C[C@H](OC(=O)[C@H](OC(=O)OC[C@@H]4COC(C)(C)O4)[C@@H](NC(=O)c4ccccc4)c4ccccc4)C(C)=C1C3(C)C)[C@]1(OC(C)=O)CO[C@@H]1C[C@@H]2O ?
a: true (1)

q: Returns: the outcome recorded for CCC(C)(C)[C@H](NC(=O)[C@H]1CCCCN1C)C(=O)N(C)[C@H](C[C@@H](OC(C)=O)c1nc(C(=O)N[C@@H](Cc2ccccc2)C[C@H](C)C(=O)O)cs1)C(C)C in this assay.
a: true (1)

q: Which outcome was assigned to COC1=CC(=O)O[C@@H](/C=C/c2ccc3c(c2)OCO3)C1 in this test?
a: false (0)

q: Hello, I am checking results. What call was entered for CCCCCCCOC(C(=O)OCCN(CC)CC)(c1ccccc1)c1ccccc1 ?
a: false (0)

q: Dear colleague, could you share the recorded outcome for Cc1cc(-c2nc3cc(F)ccc3[se]2)cc(F)c1N when you have a moment?
a: false (0)

q: Hey, what did the test say about CC(=O)OC1C(OC/C2=C/C3[C@@H](C(C)C)CC=C(C)[C@@H]3CC(OC(=O)/C=C/c3cn(C)cn3)[C@]3(C)C=C[C@@]2(O)O3)OCC(O)C1O (stereo not given in full) ?
a: true (1)

q: Which outcome did this test record for the compound C1CCC([PH+](C2CCCCC2)C2CCCCC2[PH+](C2CCCCC2)C2CCCCC2)CC1.O=C(C1[CH-]CCCC1)C1CCCC[N-]1.[Au] (stereo not given) ?
a: true (1)

q: GET /call?item= COc1cc(/C=C/[N+](=O)[O-])cc(OC)c1 returns the recorded outcome of this test.
a: true (1)

q: Fill in: this test's call for CN(CCCCN(C)CCOS(C)(=O)=O)CCOS(C)(=O)=O is ___
a: false (0)

###

Record form. Attribute: growth. Fill in for each entry.
- Tested on: HOP-92 NSCLC
- experimental.details: NCI-60 one-dose screen, 48 h (100 = growth as untreated, 0 = no growth, -100 = all killed)
- conditions: 10 µM unless noted
Compounds without any hit were thinned out: in the full panel of roughly 83,000, 20% have a hit.
Response body: numeric value in %, unit text excluded.

q: Please give the documented growth of COc1ccc(/C=C\c2cc(OC)c(OC)c(OC)c2)cc1NS(=O)(=O)c1ccc(Cl)cc1
a: 37

q: Give reported growth value for CCCC[C@H](NC(=O)[C@H]1CCCN1C)C(=O)N(C)[C@H](C[C@@H](OC(C)=O)c1nc(C(=O)N[C@@H](Cc2ccccc2)C[C@H](C)C(=O)OCC)cs1)C(C)C
a: 7.16

q: // Input: CN1C(=O)C(=Cc2cn(Cc3ccccc3)c3ccccc23)C(=O)N(C)C1=O . Output its growth only.
a: 65.1

q: Read the entry C=CCCCCCCCCC(=O)[O-].C=CCCCCCCCCC(=O)[O-].[Zn+2] and write its reported growth.
a: 72.5

q: Identify growth associated with the compound Clc1cc(N2CC2)nc(N2CC2)n1
a: 68.4

q: Quote growth reported for CCCCN1CCCC[C@@H]1C(=O)N[C@H](C(=O)N(C)[C@H](C[C@@H](OC(C)=O)c1nc(C(=O)NC2CCC(C(=O)OC)CC2)cs1)C(C)C)C(C)C (stereo not given in full) please.
a: 37

q: Supply measured growth of O=[N+]([O-])/C=C\c1ccc(Cl)c(Cl)c1 in your reply.
a: 59.2

q: Specify growth for CCC1CN1CCCCN1CC1CC (stereo not given) and stop.
a: 116

q: Give the reported value of growth for this record: O=[As](O)(O)c1ccccc1[As](=O)(O)O
a: 95.9

q: Answer with the recorded growth for the compound listed here: CCCCCSC1C2C(=O)C(Br)=CC13CCNc1c(O)c4c5c(c13)=[N+]2CCC=5C=N4 (stereo not given)
a: -56.1

q: Respond only with growth recorded for CC(=O)O[C@H]1CC[C@]2(C)[C@H]3CC[C@]4(C)[C@@H](OC(C)=O)CC[C@H]4[C@@H]3[C@@H](C)[C@]2(O)C1
a: 108

q: Give the value of growth reported for the following: CCC(=O)Nc1ccc(Cl)c(Cl)c1
a: 76.8

q: Specify measured growth for COc1ccc(-n2c(C)nc3cc(OC)c(OC)cc3c2=O)cc1OC .
a: 103

q: Give me measured growth, please, for this compound: C[C@]12C[C@@H](CO)[C@H](O)C[C@@H]1CC[C@@H]1[C@@H]2CC[C@]2(C)[C@@H](O)CC[C@@H]12
a: 87.3

q: Give reported growth value for COC(=O)[C@@H](C)C[C@H](Cc1ccccc1)NC(=O)c1nc([C@@H](C[C@H](C(C)C)N(C)C(=O)[C@@H](NC(=O)[C@H]2CC(=O)CCN2C)C(C)C)OC(C)=O)sc1C(C)C
a: 34.8

q: Note growth for the compound shown: Clc1ccc(CSC(Cn2ccnc2)c2ccc(Cl)cc2Cl)cc1 (stereo not given)
a: -4.58

q: Find the measured growth of O[C@H](CN1CC1)[C@@H](O)CN1CC1 and report it.
a: 87

q: Give recorded growth. C=COC(=O)CCN1CC1
a: 111

q: Note growth for the compound shown: COP(=O)(OC)C(O)c1ccc(Cl)cc1 (stereo not given)
a: 98.1

q: Look up and report measured growth for this entry: Clc1ccc2nnnn2n1
a: -3.54

###

- Tested on: HCC-2998 colon
- experimental.details: NCI-60 one-dose screen, 48 h (100 = growth as untreated, 0 = no growth, -100 = all killed)
- conditions: 10 µM unless noted
This is part of a sample that, as a whole, favours compounds with a hit. Of some 83,000 tested, about 20% had one in any assay.
quantity.kind: growth (%)
Give the quantity in %, number only.

q: In one line, give reported growth of the entry CC(C)=CC1C(C(=O)OCc2cccc(Oc3ccccc3)c2)C1(C)C (centres undefined) .
a: 94.5

q: Look up growth of O=C(N/N=C\c1ccc(N(CCCl)CCCl)cc1)c1cccc([N+](=O)[O-])c1 and report it.
a: 101

q: // fetch growth given entry C1CCC([PH+](C2CCCCC2)C2CCCCC2[PH+](C2CCCCC2)C2CCCCC2)CC1.O=C(C1[CH-]CCCC1)C1CCCC[N-]1.[Au] (centres undefined)
a: -83

q: Entry O=C1C(=Cc2cn(Cc3ccccc3)c3ccccc23)C(=O)N(Cc2ccccc2)C(=O)N1Cc1ccccc1 needs its growth filled in; supply it.
a: 97.4

###

- System: OVCAR-3 ovarian
- experimental.details: NCI-60 one-dose screen, 48 h
- conditions: 10 µM unless noted
The panel holds about 83,000 compounds, 20% with a hit somewhere; the sample as a whole holds those more often. Activity calls are given as the source filed them. The calls were made as follows: active = growth percent below 10; inactive = the rest.
Pick one: true (1) = active, false (0) = inactive

q: Please share the test call associated with O=C1C=C2C(=CCOC2O)O1 (configuration not stated) .
a: true (1)

q: Write down the call the test reported for this compound. Item: CC(=O)Nc1ccc(NC(=O)c2ccc([As](O)O)cc2)cc1
a: false (0)

q: Which outcome did this test record for the compound COC(=O)[C@@H](C)C[C@H](Cc1ccccc1)NC(=O)c1csc([C@@H](C[C@H](C(C)C)N(C)C(=O)[C@@H](NC(=O)[C@H]2CCCCN2C)C(C(F)(F)F)C(F)(F)F)OC(C)=O)n1 ?
a: true (1)

q: Tell me the assay call for COC(=O)[C@@H](C)C[C@H](Cc1ccccc1)NC(=O)c1nc([C@@H](C[C@H](C(C)C)N(C)C(=O)[C@@H](NC(=O)[C@H]2CC(=O)CCN2C)C(C)C)OC(C)=O)sc1C(C)C please.
a: true (1)

q: Each compound tested received a call. Report the one for COC(C(=O)[C@@H](O)[C@@H](C)O)[C@@H]1Cc2cc3cc(O[C@H]4C[C@@H](O[C@H]5C[C@@H](O)[C@H](O)C(C)O5)[C@H](O)C(C)O4)c(C)c(O)c3c(O)c2C(=O)[C@H]1O[C@H]1C[C@@H](O[C@H]2C[C@@H](O[C@H]3C[C@@H](O)[C@@H](O)C(C)O3)[C@@H](O)C(C)O2)[C@H](O)C(C)O1 (some centres not stated) .
a: true (1)

q: What did this assay record as the result for CCCC(C)C1(CC)C(=O)NC(=O)N(C)C1=O (configuration not stated) ?
a: false (0)

q: Just curious, what result did NC(=O)CNc1ccc([As]=[As]c2ccc(NCC(N)=O)cc2)cc1 (configuration not stated) get here?
a: true (1)
